target: DNA gyrase (Escherichia coli, UniProt P0AES4+P0AES6); construct: purchased Inspiralis, UK; assay: DNA gyrase supercoiling assay (E. coli); assay type: biochemical; settings: single concentration (200, 100 or 50 μM), in duplicate, versus the positive control (vehicle)
Sequence (P0AES4 whole entry, one chain of several): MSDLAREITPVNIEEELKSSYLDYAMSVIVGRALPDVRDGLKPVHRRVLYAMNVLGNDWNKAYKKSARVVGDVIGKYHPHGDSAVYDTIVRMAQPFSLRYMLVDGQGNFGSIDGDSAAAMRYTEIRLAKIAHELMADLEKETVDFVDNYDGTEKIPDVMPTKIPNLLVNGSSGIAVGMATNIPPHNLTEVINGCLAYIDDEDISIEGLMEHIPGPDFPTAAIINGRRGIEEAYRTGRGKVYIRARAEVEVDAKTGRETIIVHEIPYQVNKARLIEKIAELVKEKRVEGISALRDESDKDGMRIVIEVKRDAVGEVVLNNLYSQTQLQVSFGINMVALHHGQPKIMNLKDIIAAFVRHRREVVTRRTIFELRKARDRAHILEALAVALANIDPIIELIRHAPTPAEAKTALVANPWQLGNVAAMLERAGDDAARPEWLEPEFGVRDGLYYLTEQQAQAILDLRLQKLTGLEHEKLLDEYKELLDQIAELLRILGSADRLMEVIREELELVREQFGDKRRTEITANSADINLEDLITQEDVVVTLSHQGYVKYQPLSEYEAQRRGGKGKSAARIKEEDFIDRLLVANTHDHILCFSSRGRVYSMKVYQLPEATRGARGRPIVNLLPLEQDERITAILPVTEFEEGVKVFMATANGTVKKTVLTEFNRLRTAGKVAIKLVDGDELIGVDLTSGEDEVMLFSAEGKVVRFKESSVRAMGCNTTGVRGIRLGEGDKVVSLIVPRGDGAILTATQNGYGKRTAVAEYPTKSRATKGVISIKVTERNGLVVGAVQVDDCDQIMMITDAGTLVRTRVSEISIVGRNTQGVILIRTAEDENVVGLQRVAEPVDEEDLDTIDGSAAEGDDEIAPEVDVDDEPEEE
Where a name gives a salt, the structure may show the parent alone.
This listing pairs compounds with measured % inhibition DNA gyrase.
Hi! Could you send only the number? It should be in %, unit omitted.

Sample records with % inhibition DNA gyrase:
> print(dat)
                                   compound                             targetofassay  experimentalvalue
1  O=c1cc(NCCCN2CCN(c3cccc4ccccc34)CC2)c2ccccc2o1 [Compound 50, hydrochloride]  DNA gyrase (Escherichia coli, UniProt P0AES4+P0AES6)                 92
2  O=c1cc(NCCCN2CCN(c3nccc4ccc(F)cc34)CC2)c2ccc(O)cc2o1 [Compound 107, hydrochloride]  DNA gyrase (Escherichia coli, UniProt P0AES4+P0AES6)                 92
3  O=C(O)CC(NC[C@@H](O)CN1CCN(c2nccc3ccc(F)cc23)CC1)C1CCCCC1 (stereo partly shown) [Compound 136]  DNA gyrase (Escherichia coli, UniProt P0AES4+P0AES6)                 57

GET /values?readout=% inhibition DNA gyrase&item= O=c1cc(NCCCN2CCN(c3nccc4ccccc34)CC2)c2ccccc2[nH]1 [Compound 58, hydrochloride]
100

GET /values?readout=% inhibition DNA gyrase&item= CN(CCCN1CCN(c2nccc3ccccc23)CC1)c1cc(=O)oc2ccccc12 [Compound 53, hydrochloride]
64

GET /values?readout=% inhibition DNA gyrase&item= O=C(NCCCN1CCN(c2nccc3ccccc23)CC1)c1cc(F)ccc1F [Compound 39, hydrochloride]
50

GET /values?readout=% inhibition DNA gyrase&item= O=c1cc(N2CCN(CCCNc3cc(=O)oc4ccccc34)CC2)c2ccccc2[nH]1 [Compound 68, hydrochloride]
100

GET /values?readout=% inhibition DNA gyrase&item= O=C(O)C1CN(c2nccc3ccccc23)CCN1CCCNc1cc(=O)oc2ccccc12 (stereo not shown) [Compound 82, hydrochloride]
85
